EXPERIMENTAL SYSTEM: T1, Anti-PSMA Fab
T1 construct: Biotinylated and captured on neutravidin coated plates in the phage ELISA; also called 006 PSMA Fab
ASSAY REMARKS: clonal phage ELISA on captured PSMA Fab pre-incubated with PSMA antigen as competitor, anti-M13 HRP detection;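 further: crude clonal phage supernatants tested by ELISA, wells first treated with blocking buffer plus PSMA antigen, bound phage read out via HRP-linked anti-M13 antibody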
Where no end group is shown, it is not given here.
I'd be grateful if you could share measured Phage binding ELISA signal, Anti-PSMA Fab with PSMA antigen for these entries.
Note: the reply should be a number with no unit written.

Problem: Need Phage binding ELISA signal, Anti-PSMA Fab with PSMA antigen of SMAWCVPNWMCTGF (cysteine pairing not given here; also: fused to pIII of bacteriophage, pIII and linker not given here, Peptide-180 library clone, tested as clonal phage supernatant with the peptide fused to pIII of the bacteriophage) [Phage-3495] , thanks.
Solution: 0.0897

Problem: Need Phage binding ELISA signal, Anti-PSMA Fab with PSMA antigen of VNMICKPAWMCKGF (cysteine pairing not given here; also: fused to pIII of bacteriophage, pIII and linker not given here, Peptide-180 library clone, tested as clonal phage supernatant with the peptide fused to pIII of the bacteriophage) [Phage-3490] , thanks.
Solution: 0.0872

Problem: Need Phage binding ELISA signal, Anti-PSMA Fab with PSMA antigen of VDRICKPDWMCAGF (cysteine pairing not given here; also: fused to pIII of bacteriophage, pIII and linker not given here, Peptide-180 library clone, tested as clonal phage supernatant with the peptide fused to pIII of the bacteriophage) [Phage-3497] , thanks.
Solution: 0.091

Problem: Need Phage binding ELISA signal, Anti-PSMA Fab with PSMA antigen of DILRCVPEWMCTGF (cysteine pairing not given here; also: fused to pIII of bacteriophage, pIII and linker not given here, Peptide-180 library clone, tested as clonal phage supernatant with the peptide fused to pIII of the bacteriophage) [Phage-3492] , thanks.
Solution: 0.0911

Problem: Need Phage binding ELISA signal, Anti-PSMA Fab with PSMA antigen of PLRYCEPAWMCFGF (cysteine pairing not given here; also: fused to pIII of bacteriophage, pIII and linker not given here, Peptide-180 library clone, tested as clonal phage supernatant with the peptide fused to pIII of the bacteriophage) [Phage-3501] , thanks.
Solution: 0.0601

Problem: Need Phage binding ELISA signal, Anti-PSMA Fab with PSMA antigen of WLYSCIPQWMCTGF (cysteine pairing not given here; also: fused to pIII of bacteriophage, pIII and linker not given here, Peptide-180 library clone, tested as clonal phage supernatant with the peptide fused to pIII of the bacteriophage) [Phage-3502] , thanks.
Solution: 0.127

Problem: Need Phage binding ELISA signal, Anti-PSMA Fab with PSMA antigen of YPTWCVPTWMCTGM (cysteine pairing not given here; also: fused to pIII of bacteriophage, pIII and linker not given here, Peptide-180 library clone, tested as clonal phage supernatant with the peptide fused to pIII of the bacteriophage) [Phage-3493] , thanks.
Solution: 0.0716

Problem: Need Phage binding ELISA signal, Anti-PSMA Fab with PSMA antigen of YDHFCVPRWMCEGL (cysteine pairing not given here; also: fused to pIII of bacteriophage, pIII and linker not given here, Peptide-180 library clone, tested as clonal phage supernatant with the peptide fused to pIII of the bacteriophage) [Phage-3500] , thanks.
Solution: 0.0592

Problem: Need Phage binding ELISA signal, Anti-PSMA Fab with PSMA antigen of EAPACVPVWMCNGF (cysteine pairing not given here; also: fused to pIII of bacteriophage, pIII and linker not given here, Peptide-180 library clone, tested as clonal phage supernatant with the peptide fused to pIII of the bacteriophage) [Phage-3503] , thanks.
Solution: 0.0778

Problem: Need Phage binding ELISA signal, Anti-PSMA Fab with PSMA antigen of THPLCVPTWMCSGF (cysteine pairing not given here; also: fused to pIII of bacteriophage, pIII and linker not given here, Peptide-180 library clone, tested as clonal phage supernatant with the peptide fused to pIII of the bacteriophage) [Phage-3499] , thanks.
Solution: 0.0862

Problem: Need Phage binding ELISA signal, Anti-PSMA Fab with PSMA antigen of LEMVCKPEWMCLGL (cysteine pairing not given here; also: fused to pIII of bacteriophage, pIII and linker not given here, Peptide-180 library clone, tested as clonal phage supernatant with the peptide fused to pIII of the bacteriophage) [Phage-3491] , thanks.
Solution: 0.0996

Problem: Need Phage binding ELISA signal, Anti-PSMA Fab with PSMA antigen of TVHYCTPSWMCTGF (cysteine pairing not given here; also: fused to pIII of bacteriophage, pIII and linker not given here, Peptide-180 library clone, tested as clonal phage supernatant with the peptide fused to pIII of the bacteriophage) [Phage-3498] , thanks.
Solution: 0.0866

Problem: Need Phage binding ELISA signal, Anti-PSMA Fab with PSMA antigen of DYMMCSPDWMCKGF (cysteine pairing not given here; also: fused to pIII of bacteriophage, pIII and linker not given here, Peptide-180 library clone, tested as clonal phage supernatant with the peptide fused to pIII of the bacteriophage) [Phage-3494] , thanks.
Solution: 0.0722

Problem: Need Phage binding ELISA signal, Anti-PSMA Fab with PSMA antigen of QDMVCRPAWMCTGF (cysteine pairing not given here; also: fused to pIII of bacteriophage, pIII and linker not given here, Peptide-180 library clone, tested as clonal phage supernatant with the peptide fused to pIII of the bacteriophage) [Phage-3496] , thanks.
Solution: 0.0848
